tested on: Sam68 (KHDRBS1); assay: compounds binding KHDRBS1 protein – biochemical, small-molecule microarray, 635 nm fluorescence, primary screen (AID 1125); settings: higher = more signal;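 further: score merges 667 nm channel intensity with signal to noise over triplicate slides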
Could you please report measured composite z-score for the items listed next?

stdin: Given the molecule CC(C)(C)N1CC=CC23O[C@@H]4/C=C\CCCOC(=O)C4[C@H]2C(=O)N(CCCCCO)[C@@H]3C1=O (stereo partly specified) , what is its reported composite z-score?
stdout: -0.484

stdin: What value of composite z-score has been reported for the following molecule? `COCCCNC(=O)[C@@]1(CCS(=O)(=O)c2ccccc2)COC(c2ccc(OCCCO)cc2)=N1`
stdout: 1.14

stdin: Which composite z-score value belongs to CCC(CC)C(O)C1C=CC2C(=O)N(c3ccccc3)C(=O)C2N1Nc1ccccc1F (stereo unspecified) ?
stdout: 0.865

stdin: Given the molecule COC(=O)C1(Cc2ccccc2)C=C2C(=C(C)C(=O)C2C)CN1 (stereo unspecified) , what is its reported composite z-score?
stdout: -0.674

stdin: Which value of composite z-score has been reported for `CO[C@H]1O[C@H](CO)[C@@H](OC(=O)Nc2ccccc2)[C@H](OC(=O)Nc2ccccc2)[C@H]1OC(=O)Nc1ccccc1` in the records?
stdout: 1.3

stdin: Need composite z-score of O=C1OCCC=C[C@H]2OC34C=CCN(c5ccc6ccccc6c5)C(=O)[C@H]3N(CCO)C(=O)[C@@H]4C12 (stereo partly specified) , thanks.
stdout: -0.362

stdin: Please look up its composite z-score: COc1ccc(C(O)C2C=CC3C(=O)N(c4ccccc4)C(=O)C3N2Nc2ccc([N+](=O)[O-])cc2)c2ccccc12 (stereo unspecified)
stdout: 1.3

stdin: Requested field: composite z-score. Item: NC(=O)N1C(=O)C2C(C1=O)C1C=C(CCCO)C2C(c2ccc(CN3CCCC3)cc2)N1Cc1sc2ccccc2c1Cl (stereo unspecified)
stdout: -0.0045

stdin: Record request: composite z-score value, item `O=C1C[C@]2(c3ccc([N+](=O)[O-])cc3)C(=O)N(C3CC3)c3cc(CO)ccc3[C@H]2N1C1CCCCC1`
stdout: 0.0418

stdin: Please give the measured composite z-score for this molecule: COc1ccc(C(O)C2C=CC3C(=O)N(C)C(=O)C3N2N(c2ccccc2)c2ccccc2)cc1 (stereo unspecified)
stdout: 0.731

stdin: Fill in: composite z-score of `C=C(/C(=C/C[C@@H](OC(C)=O)c1cccc(OCCO)c1)c1cnc2ccccc2c1)C(C)C` is ___
stdout: 0.869

stdin: Returns the measured composite z-score for the input molecule. Input: `CCCN1C(=O)[C@@]2(c3ccc([N+](=O)[O-])cc3)CC(=O)N(CC34CC5CC(CC(C5)C3)C4)[C@@H]2c2ccc(CO)cc21`
stdout: -0.83

stdin: I would be grateful if you could share the reported composite z-score for CC(=O)OCC1C2CC[C@H]3C(OCc4ccc(F)cc4C(F)(F)F)OC[C@]4(C)[C@H]3C2=C(CN4C(=O)OC(C)(C)C)[C@H](C)C1COC(C)=O (stereo partly specified) .
stdout: 0.0524

stdin: State the recorded composite z-score for this entry: COc1ccc(C(O)C2C=CC3C(=O)N(c4ccccc4)C(=O)C3N2Nc2ccc(C#N)cc2)cc1OCc1ccccc1 (stereo unspecified)
stdout: 1.3

stdin: Recorded composite z-score of `COCCCNC(=O)[C@@]1(CCC(=O)OC(C)(C)C)COC(c2ccc(OCCCO)cc2)=N1` , please.
stdout: 1.28

stdin: For the molecule `C[C@@H]1ON(c2ccccc2)[C@H](c2ccccc2)[C@H]1C(=O)O` , what composite z-score is on record?
stdout: 0.0005

Hello, the source for this data is PubChem BioAssay, in case you need it.
